- target.or.system: GR (IL-6 promoter) (Homo sapiens)
- protocol: reporter gene test in HeLa cells, transrepression, IL-6 promoter-luciferase
- test.parameters: HeLa cells, TPA-induced, luciferase
Reported Transrepression (TR)(IL-6-Promoter) Efficacy by item:
endpoint.label: Transrepression (TR)(IL-6-Promoter) Efficacy (%)

• C[C@@H]1C[C@H]2[C@@H]3CCC4=CC(=O)C=C[C@]4(C)[C@@]3(F)[C@@H](O)C[C@]2(C)[C@@]1(O)C(=O)CO [Dexamethasone, reference compound] = 100
• CCc1noc(=O)c2ccc(NC(=O)C(O)(CC3(c4cccc5c4OCC5)CCC3)C(F)(F)F)cc12 (single isomer, unassigned) [Example 17] = 73
• Cc1noc(=O)c2ccc(NC(=O)C(O)(CC3(c4cccc5c4OCC5)CCC3)C(F)(F)F)cc12 (racemic) [Example 14] = 85
• Cc1noc(=O)c2ccc(NC(=O)C(O)(CC3(c4cccc5c4OCC5)CCC3)C(F)(F)F)cc12 (single isomer, unassigned) [Example 15] = 74
• Cc1noc(=O)c2ccc(NC(=O)C(O)(CC(C)(C)c3cccc4ccoc34)C(F)(F)F)cc12 (single isomer, unassigned) [Example 23] = 78
• Cc1noc(=O)c2ccc(NC(=O)C(O)(CC3(c4cccc5c4OCO5)CC3)C(F)(F)F)cc12 (single isomer, unassigned; (+)) [Example 4] = 80

----------
- target.or.system: GR (IL-6 promoter) (Homo sapiens)
- Sequence (P04150 1-777): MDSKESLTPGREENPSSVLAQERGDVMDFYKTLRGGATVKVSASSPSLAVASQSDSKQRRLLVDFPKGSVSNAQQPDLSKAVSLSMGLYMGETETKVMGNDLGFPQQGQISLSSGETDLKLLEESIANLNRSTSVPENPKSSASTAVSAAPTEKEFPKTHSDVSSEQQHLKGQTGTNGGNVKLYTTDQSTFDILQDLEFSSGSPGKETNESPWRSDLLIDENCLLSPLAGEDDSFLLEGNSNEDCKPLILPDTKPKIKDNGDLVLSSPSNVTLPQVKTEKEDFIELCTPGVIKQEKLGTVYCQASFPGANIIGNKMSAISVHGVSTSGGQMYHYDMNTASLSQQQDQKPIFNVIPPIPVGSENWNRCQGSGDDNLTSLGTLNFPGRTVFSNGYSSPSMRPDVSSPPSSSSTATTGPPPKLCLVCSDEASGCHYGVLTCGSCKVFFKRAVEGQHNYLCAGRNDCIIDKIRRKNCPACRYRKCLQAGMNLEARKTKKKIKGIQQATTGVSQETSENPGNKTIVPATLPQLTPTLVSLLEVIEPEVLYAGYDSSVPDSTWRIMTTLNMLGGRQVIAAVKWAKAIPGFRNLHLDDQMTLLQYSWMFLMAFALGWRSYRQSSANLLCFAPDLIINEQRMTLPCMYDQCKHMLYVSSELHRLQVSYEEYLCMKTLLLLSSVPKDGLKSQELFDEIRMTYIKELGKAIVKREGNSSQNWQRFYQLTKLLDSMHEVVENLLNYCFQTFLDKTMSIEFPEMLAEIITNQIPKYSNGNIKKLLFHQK
- protocol: reporter gene test in HeLa cells, transrepression, IL-6 promoter-luciferase
- test.parameters: HeLa, read-out: Transrepression (TR)(IL-6-Promoter) Efficacy
endpoint.label: Emax (%)

• Cc1noc(=O)c2ccc(NC(=O)C(O)(CC(C)(C)c3cc(F)cc4c3OCO4)C(F)(F)F)cc12 (racemic) [Example 18] = 63
• CCc1noc(=O)c2ccc(NC(=O)C(O)(CC(C)(C)c3cccc4ccoc34)C(F)(F)F)cc12 (single isomer, unassigned; (+)) = 67
• C[C@]12C=CC(=O)C=C1CC[C@@H]1[C@@H]2[C@@H](O)C[C@@]2(C)[C@H]1CC[C@]2(O)C(=O)CO [Prednisolone, reference compound] = 94
• Cc1noc(=O)c2ccc(NC(=O)C(O)(CC(C)(C)c3cccc4c3OCO4)C(F)(F)F)cc12 (racemic) [Example 1] = 84
• COc1c(F)cccc1C1(CC(O)(C(=O)Nc2ccc3c(=O)onc(C)c3c2)C(F)(F)F)CCC1 (single isomer, unassigned) [Example 32] = 76
• Cc1noc(=O)c2ccc(NC(=O)C(O)(CC3(c4cccc(F)c4O)CCC3)C(F)(F)F)cc12 (single isomer, unassigned) = 80
